These data points were gathered from paper PMC10017709.

Each item that follows carries a reported Kd.
measured.on: hCB2R (Homo sapiens, UniProt P34972)
Sequence (P34972 whole entry): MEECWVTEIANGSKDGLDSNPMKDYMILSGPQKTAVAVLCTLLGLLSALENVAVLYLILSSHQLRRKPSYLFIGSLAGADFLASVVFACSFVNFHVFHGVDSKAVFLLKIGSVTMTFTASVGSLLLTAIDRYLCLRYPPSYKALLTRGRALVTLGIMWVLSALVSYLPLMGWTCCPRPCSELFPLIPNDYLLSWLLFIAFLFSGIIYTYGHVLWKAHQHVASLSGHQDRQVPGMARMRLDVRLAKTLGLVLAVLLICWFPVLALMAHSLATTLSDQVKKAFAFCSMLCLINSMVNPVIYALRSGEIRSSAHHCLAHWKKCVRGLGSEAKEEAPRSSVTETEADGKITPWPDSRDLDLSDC

substance.smiles	Kd (nM)
CCCCC/C=C\C/C=C\C/C=C\C/C=C\CCCC(=O)OC(CO)CO	42.7
CC(C)CN1C(=O)CN(Cc2ccc(-c3ccc(F)c(CNC4CCOCC4)n3)cc2)C1=O	16.5

* * *

Recorded EC50 by entry
measured.on: CB2R-L182^ECL2I (Homo sapiens, UniProt P34972, L182I)
Sequence (P34972 whole entry L182I): as the sequence (P34972 whole entry) above, with L182I counted along it
experiment: [35S]GTPγS assay, CB2R L182I mutant
test.settings: L182I mutant; <5 when curve fit not finished

substance.smiles	unit.text	value.modifier	EC50
CCCCC/C=C\C/C=C\C/C=C\C/C=C\CCCC(=O)OC(CO)CO	nM	>	10000
CC(C)CN1C(=O)CN(Cc2ccc(-c3ccc(F)c(CNC4CCOCC4)n3)cc2)C1=O	nM	=	39.8
